Origin of values: patent US7211572B2

Reported pIC50 values are given for each entry in this list.
- test_system: HIV integrase (Human immunodeficiency virus type 1 group M subtype B, UniProt P12497, F1332H)
- Construct: HIV integrase full length gene
- assay_summary: Determination of enzyme (HIV integrase) inhibitory activity
- condition_label: recombinant HIV integrase (F185H), strand transfer ELISA, absorbance at 450 nm
pIC50: −log10 of the molar value. Structures can show the parent of a compound that is named as a salt.

// below: answered compounds
{"columns": ["compound", "pIC50"],
 "data": [
  ["O=C(OCc1ccccc1)C(Cc1ccccc1)c1cc(=O)c(O)c2n1CCN(Cc1ccc(Cl)c(Cl)c1)C2=O (stereo not shown) [Example 82]", "7.00 to 8.00"],
  ["O=C(Nc1cn2c(c(O)c1=O)C(=O)N(Cc1cccc(Cl)c1F)CC2)c1cccnc1 [Example 352, hydrochloride]", "7.00 to 8.00"],
  ["CC(C)c1cn(Cc2ccc(Cl)c(Cl)c2)c(=O)c2c(O)c(=O)ccn12 [Example 78]", "> 8.00"]
]}

Attention now turns to another entry.
Request: Record request: pIC50 value, item Cn1cc2c(c(O)c1=O)C(=O)N(CCCc1c(F)cccc1Cl)CC2 [Example 122]
Response: > 8.00

###

Reported pIC50 is given for each of the following compounds.
- test_system: HIV integrase (Human immunodeficiency virus type 1 group M subtype B, UniProt P12497, F1332H)
- Construct: HIV integrase full length gene
- assay_summary: Determination of enzyme (HIV integrase) inhibitory activity
- condition_label: recombinant HIV integrase (F185H), strand transfer ELISA, absorbance at 450 nm
- Description: The following explains evaluation methods of the HIV integrase inhibitory activity of the compound of the present invention. (i) Construction of Recombinant Integrase Gene Expression System […] A peroxidase color solution (Bio Rad, 100 μl) was added and allowed to react at room temperature for 4 min. […] The absorbance at 450 nm was measured. […]
pIC50: −log10 of the molar value. Structures can show the parent of a compound that is named as a salt.

{"columns": ["compound", "pIC50"],
 "data": [
  ["CN(C)C(=O)c1cn2c(c(O)c1=O)C(=O)N(Cc1ccc(F)c(Cl)c1)CC2 [Example 228]", "7.00 to 8.00"],
  ["O=c1ccn2ccn(Cc3ccc(F)c(Cl)c3)c(=O)c2c1O [Example 90, hydrochloride]", "> 8.00"]
]}

Request: Using the record for COc1ccc(Cl)cc1Cn1ccn2ccc(=O)c(O)c2c1=O [Example 202, hydrochloride] , report its pIC50.
Response: 7.00 to 8.00

Request: Value lookup for pIC50; key = O=c1c(Sc2ccccc2)cn2ccn(Cc3cccc(Cl)c3)c(=O)c2c1O [Example 235]
Response: 7.00 to 8.00

Request: Which pIC50 reading was recorded for the compound COCC(=O)Nc1cn2ccn(Cc3ccc(F)cc3)c(=O)c2c(O)c1=O [Example 318] ?
Response: 7.00 to 8.00

Request: Reported pIC50, compound O=C1c2c(O)c(=O)c(-c3nccs3)cn2CCN1Cc1ccc(Cl)cc1O [Example 350, hydrochloride] : ____
Response: > 8.00

Request: What value of pIC50 has been reported for the following compound? CCc1cn(Cc2ccc(Cl)c(Cl)c2)c(=O)c2c(O)c(=O)ccn12 [Example 85]
Response: 7.00 to 8.00

Request: Recorded pIC50 for Cn1ncnc1-c1cn2ccn(Cc3cccc(Cl)c3)c(=O)c2c(O)c1=O [Example 232, hydrochloride] , please?
Response: > 8.00

###

- test_system: HIV integrase (Human immunodeficiency virus type 1 group M subtype B, UniProt P12497, F1332H)
- Construct: HIV integrase full length gene
- assay_summary: Determination of enzyme (HIV integrase) inhibitory activity
- condition_label: recombinant HIV integrase (F185H), strand transfer ELISA, absorbance at 450 nm
pIC50: −log10 of the molar value. Counter-ions that a name gives are not always drawn.
measured_parameter: pIC50

Field: example entries. Status: answers known.
{"columns": ["compound", "pIC50"],
 "data": [
  ["O=C(NCc1cccnc1)c1cn2c(c(O)c1=O)C(=O)N(Cc1cccc(Cl)c1)CC2 [Example 371, hydrochloride]", "7.00 to 8.00"],
  ["C[S+]([O-])c1cn2ccn(Cc3cccc(Cl)c3)c(=O)c2c(O)c1=O (centres unmarked)", "7.00 to 8.00"],
  ["CNC(=O)c1cn2c(c(O)c1=O)C(=O)N(Cc1ccc(F)c(F)c1)CC2", "6.00 to 7.00"],
  ["O=c1ccn2ccn(CCOc3ccccc3Cl)c(=O)c2c1O [Example 169, hydrochloride]", "6.00 to 7.00"],
  ["Cn1ncnc1-c1cn2ccn(Cc3ccc(F)c(Cl)c3)c(=O)c2c(O)c1=O [Example 405, hydrochloride]", "> 8.00"]
]}

Request: Recorded pIC50 for O=C(O)c1cc(F)ccc1CN1CCn2cc(-c3nccs3)c(=O)c(O)c2C1=O [Example 368, hydrochloride] , please?
Response: 7.00 to 8.00

Request: Recorded pIC50 of CC(=O)CNC(=O)c1cn2ccn(Cc3cccc(Cl)c3)c(=O)c2c(O)c1=O , please.
Response: 7.00 to 8.00

Request: Can you look up the measured pIC50 of CC(C)CNC(=O)c1cn2ccn(Cc3cccc(Cl)c3)c(=O)c2c(O)c1=O for me?
Response: 7.00 to 8.00

###

The following compounds are shown together with reported pIC50 values.
- test_system: HIV integrase (Human immunodeficiency virus type 1 group M subtype B, UniProt P12497, F1332H)
- Construct: HIV integrase full length gene
- assay_summary: Determination of enzyme (HIV integrase) inhibitory activity
- condition_label: recombinant HIV integrase (F185H), strand transfer ELISA, absorbance at 450 nm
pIC50: −log10 of the molar value. Counter-ions that a name gives are not always drawn.

Examples from the recorded data:
{"columns": ["compound", "pIC50"],
 "data": [
  ["CCN(C)C(=O)c1cc(=O)c(O)c2n1CCN(Cc1ccc(Cl)c(Cl)c1)C2=O", "> 8.00"],
  ["CS(=O)(=O)CCNC(=O)c1cn2ccn(Cc3cccc(Cl)c3)c(=O)c2c(O)c1=O", "7.00 to 8.00"],
  ["CC(C)(C)C(=O)c1cn2c(c(O)c1=O)C(=O)N(Cc1ccc(Cl)c(Cl)c1)CC2", "> 8.00"],
  ["NC(=O)c1cc(=O)c(O)c2n1CCN(Cc1ccc(Cl)c(Cl)c1)C2=O", "7.00 to 8.00"],
  ["COC(=O)C1CN(Cc2ccc(Cl)c(Cl)c2)C(=O)c2c(O)c(=O)ccn21 (centres unmarked)", "7.00 to 8.00"],
  ["O=C1c2c(O)c(=O)ccn2CCN1Cc1ccc(Cl)c(Cl)c1 [Example 1, hydrochloride]", "> 8.00"],
  ["O=c1ccn2ccn(C/C=C/c3ccccc3)c(=O)c2c1O", "7.00 to 8.00"]
]}

Request: Any idea what its pIC50 is? The compound is O=c1c(-c2ccco2)cn2ccn(Cc3cccc(Cl)c3)c(=O)c2c1O [Example 120, hydrochloride]
Response: > 8.00

###

// reported pIC50 per item
- test_system: HIV integrase (Human immunodeficiency virus type 1 group M subtype B, UniProt P12497, F1332H)
- Construct: HIV integrase full length gene
- assay_summary: Determination of enzyme (HIV integrase) inhibitory activity
- condition_label: recombinant HIV integrase (F185H), strand transfer ELISA, absorbance at 450 nm
pIC50: −log10 of the molar value. Where a name gives a salt, the structure may show the parent alone.

Study these solved cases before continuing.
{"columns": ["molecule", "measured_parameter", "reported_measurement"],
 "data": [
  ["O=c1ncn2ccn(Cc3ccc(Cl)c(Cl)c3)c(=O)c2c1O [Example 12, hydrochloride]", "pIC50", "7.00 to 8.00"],
  ["CC(=O)Nc1cn2ccn(Cc3cccc(Cl)c3)c(=O)c2c(O)c1=O [Example 165]", "pIC50", "7.00 to 8.00"],
  ["CC(C)C(=O)Nc1cn2c(c(O)c1=O)C(=O)N(Cc1ccc(F)c(Cl)c1)CC2 [Example 349]", "pIC50", "7.00 to 8.00"],
  ["O=c1c(-c2cccnc2)cn2ccn(Cc3cccc(Cl)c3)c(=O)c2c1O [Example 115, hydrochloride]", "pIC50", "> 8.00"],
  ["O=C1c2c(O)c(=O)cc(CCO)n2CCN1Cc1ccc(Cl)c(Cl)c1 [Example 83]", "pIC50", "7.00 to 8.00"],
  ["O=C1c2c(O)c(=O)c(-c3cc[nH]n3)cn2CCN1Cc1cccc(Cl)c1 [Example 267]", "pIC50", "7.00 to 8.00"],
  ["O=C(NCCO)c1cn2ccn(Cc3cccc(Cl)c3)c(=O)c2c(O)c1=O [Example 178]", "pIC50", "7.00 to 8.00"],
  ["CC1CN(Cc2ccc(Cl)c(Cl)c2)C(=O)c2c(O)c(=O)ccn21 (centres unmarked) [Example 13]", "pIC50", "7.00 to 8.00"],
  ["CN(Cc1ccccc1)C(=O)c1cn2c(c(O)c1=O)C(=O)N(Cc1cccc(Cl)c1)CC2 [Example 370, hydrochloride]", "pIC50", "> 8.00"],
  ["CC(C)Oc1ccc(CN2CCn3cc(-c4nccs4)c(=O)c(O)c3C2=O)cc1Cl [Example 355, hydrochloride]", "pIC50", "7.00 to 8.00"]
]}

Request: pIC50 lookup needed for O=c1ccn2c(CO)cn(Cc3ccc(Cl)c(Cl)c3)c(=O)c2c1O [Example 86] , thanks.
Response: > 8.00

Request: Returns the measured pIC50 for the input molecule. Input: CC(C)(C(=O)Nc1cn2ccn(Cc3cccc(Cl)c3)c(=O)c2c(O)c1=O)c1ccccc1 [Example 277]
Response: > 8.00

Request: Quick one: pIC50 for O=C(NCC(F)(F)F)c1cn2ccn(Cc3cccc(Cl)c3)c(=O)c2c(O)c1=O [Example 181] ?
Response: 7.00 to 8.00
